Ref: patent US20230295310A1

# system: T1, human CD3 (human, UniProt P07766 23-207; P04234 22-171; P09693 23-182)
# T1 construct: whole, on cells; also called CD3 on Jurkat cells; CD3 on human primary T cells
# T1 sequence (P07766 23-207, chain 1 of 3): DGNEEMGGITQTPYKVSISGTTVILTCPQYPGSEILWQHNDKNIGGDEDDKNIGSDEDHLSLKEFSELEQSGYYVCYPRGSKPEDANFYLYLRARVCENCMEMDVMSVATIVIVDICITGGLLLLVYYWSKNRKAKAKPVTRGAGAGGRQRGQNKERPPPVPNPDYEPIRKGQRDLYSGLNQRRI
# T1 sequence (P04234 22-171, chain 2 of 3): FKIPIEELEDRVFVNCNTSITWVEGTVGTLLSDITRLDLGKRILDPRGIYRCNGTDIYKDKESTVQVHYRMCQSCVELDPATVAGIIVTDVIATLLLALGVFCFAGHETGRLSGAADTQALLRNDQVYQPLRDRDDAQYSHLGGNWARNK
# T1 sequence (P09693 23-182, chain 3 of 3): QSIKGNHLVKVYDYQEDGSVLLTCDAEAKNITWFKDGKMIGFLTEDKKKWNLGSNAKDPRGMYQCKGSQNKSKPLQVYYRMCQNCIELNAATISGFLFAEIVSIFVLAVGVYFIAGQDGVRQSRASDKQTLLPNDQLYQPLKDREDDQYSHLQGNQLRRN
# testMethodNotes: flow cytometry, human primary T cells, 25 nM antibody
Please respond with reported Human primary T Cell Binding (FOI) for every item in the list.

Query: Assign Human primary T Cell Binding (FOI) to the following record: mAb 300 (antibody, V domains shown, VH and VL only) VH: EVQLLESGGGLVQPGGSLRLSCAASGFTFSRYAMSWVRQAPGRGLEWVSTISGSGGRTYYVDSVKGRFTISRDNSKNTLYLQMNSLRAEDTAVYYCAKMFSYYYYYMDVWGKGTTVTVSS VL: EIVMTQSPATLSLSPGKRATLSCRASQSVSTTYLSWYLQKPGQAPRLLIYGASTRATGIPARFSGSGSGTDFTLTISSLQPEDFAVYYCQQDYNLPPYTFGQGTKLEIK
Reply: 26.7 FOI

Query: Complete the entry with Human primary T Cell Binding (FOI) for mAb 318 (antibody, V domains shown, VH and VL only) VH: EGQLLESGGGLVQPGGSLRLSCAASGFTFSRYAMSWIRQAPGKGLEWVSVIDGSGGDKNYADSVKGRFTISRDNSKNSLYLLMNGLRVEDTAIYFCAKKFSYYYYYMDVWGKGTSVTVSS VL: SYELTQPLSVSVALGQTARITCGGNNIGGKDVHWYQQKPGQAPVLVIYRDSNRPSGIPERFSGSNSGNTATLTISRAQAGDEADYYCQVWDSRTAVFGGGTQLTAL
Reply: 211 FOI

Query: For the binder mAb 297 (antibody, V domains shown, VH and VL only) VH: EVQLLESGGGLVQPGGSLRLSCAASGFTFSSYAMNWVRQAPGKGLEWVSIISGGRRDDITYYAASVKGRFTISRDNSKNTLYLQMNSLRAEDTAVYYCAKMYNYYYYYIDVWGKGTTVTVSS VL: SYELTQPLSVSVALGQTAKITCGGNNIGSKDVHWYQQKPGQAPVLVIYRDSNRPSGIPERFSGSNSGNTATLTISRAQAGDEADYYCQVWDSNTAVFGGGTQLTAL , give its measured Human primary T Cell Binding (FOI) value.
Reply: 211 FOI
